- SYSTEM_UNDER_TEST: glutathione S-transferase (GST)-fused full-length human Syk protein (Homo sapiens, UniProt P43405)
- Construct: (GST)-fused full-length human Syk protein; GST (glutathione S-transferase); purchased Carna Biosciences
- TEST_DETAILS: Syk enzyme assay
- Format: biochemical
- MEASUREMENT_CONDITIONS: Syk enzyme assay, Test Example 1; read-out: IC50 of Syk-inhibitory activity
pIC50: −log10 of the molar value.
MEASUREMENT_LABEL: pIC50

COMPOUND	RESULT
CCn1nc(C)c2cc(Nc3nc(N[C@H](CC4CC4)[C@H](C)N)c(F)cc3C(N)=O)ccc21	> 8.00
NC(=O)c1cc(F)c(N[C@@H]2CCCC[C@@H]2N)nc1Nc1cncc(-c2ccc(F)cc2F)c1 (relative stereo)	> 8.00
C[C@H](N)[C@H](Nc1nc(Nc2cnc3c(c2)OCO3)c(C(N)=O)cc1F)C1CC1	7.00 to 7.30
NC(=O)c1cc(F)c(N[C@@H]2CCCC[C@@H]2N)nc1Nc1cncc(-c2cccc(OCCN3CCOCC3)c2)c1 (relative stereo)	> 8.00

Please indicate pIC50 recorded for CCC[C@@H](Nc1nc(Nc2ccc3scnc3c2)c(C(N)=O)cc1F)[C@H](C)N > 8.00

Please report pIC50 for the following compound: NC(=O)c1cc(F)c(NC2CCCCC2N)nc1Nc1cncc(NC(=O)c2cc3ccccc3s2)c1 (stereo not shown) 7.30 to 8.00

# return recorded pIC50 for input CCC[C@@H](Nc1nc(Nc2cnc(C)c(-n3nccn3)c2)c(C(N)=O)cc1F)[C@H](C)N > 8.00
